Settings: HLM; 10 μM; Complete
# k constant values compiled below

compound: CC1(C)CCSc2ccc(C#Cc3ccc(C(=O)O)cn3)cc21
k constant: −0.0047
//
compound: CCOC(=O)c1ccc(C#Cc2ccc3c(c2)C(C)(C)CCS3)nc1
k constant: −0.0827
//
compound: CCOC(=O)c1ccc(C#Cc2ccc3c(c2)C(C)(C)CC(OC(=O)c2ccccc2)S3)nc1 (stereo not shown)
k constant: −0.0097
//
compound: CCOC(=O)c1ccc(C#Cc2ccc3c(c2)C(C)(C)CC[S+]3[O-])nc1 (stereo not shown) [Tazarotene sulfoxide]
k constant: −0.0647

---

Test Article remaining, percent of initial concentration listing for selected compounds.
Settings: 1 μM initial concentration; Complete (with NADPH); 0 min
measurement type: Test Article remaining, percent of initial concentration (%)

compound: CCOC(=O)c1ccc(C#Cc2ccc3c(c2)C(C)(C)CC(OC(=O)c2ccccc2)S3)nc1 (stereo not shown) [Compound 4]
endpoint unit: %
experimental value: 100
--
compound: CCOC(=O)c1ccc(C#Cc2ccc3c(c2)C(C)(C)CC[S+]3[O-])nc1 (stereo not shown) [Tazarotene sulfoxide]
endpoint unit: %
experimental value: 100
--
compound: CCOC(=O)c1ccc(C#Cc2ccc3c(c2)C(C)(C)CCS3)nc1 [Tazarotene]
endpoint unit: %
experimental value: 100
--
compound: CC1(C)CCSc2ccc(C#Cc3ccc(C(=O)O)cn3)cc21 [Tazarotenic acid]
endpoint unit: %
experimental value: 100

---

Settings: 1 μM initial concentration; Complete (with NADPH); 15 min
# reported Test Article remaining, percent of initial concentration; entries follow
measurement type: Test Article remaining, percent of initial concentration (%)

compound: CCOC(=O)c1ccc(C#Cc2ccc3c(c2)C(C)(C)CC[S+]3[O-])nc1 (stereo not shown) [Tazarotene sulfoxide]
experimental value: 25.6
//
compound: CC1(C)CCSc2ccc(C#Cc3ccc(C(=O)O)cn3)cc21
experimental value: 89.9
//
compound: CCOC(=O)c1ccc(C#Cc2ccc3c(c2)C(C)(C)CCS3)nc1
experimental value: 21.1
//
compound: CCOC(=O)c1ccc(C#Cc2ccc3c(c2)C(C)(C)CC(OC(=O)c2ccccc2)S3)nc1 (stereo not shown)
experimental value: 20.3

---

Parameter Test Article remaining, percent of initial concentration: see the listing below.
Details: 1 μM initial concentration; Without NADPH; 45 min
measurement type: Test Article remaining, percent of initial concentration

molecule: CC1(C)CCSc2ccc(C#Cc3ccc(C(=O)O)cn3)cc21
experimental value: 102%

molecule: CCOC(=O)c1ccc(C#Cc2ccc3c(c2)C(C)(C)CC[S+]3[O-])nc1 (stereo not shown) [Tazarotene sulfoxide]
experimental value: 2.72%

molecule: CCOC(=O)c1ccc(C#Cc2ccc3c(c2)C(C)(C)CCS3)nc1
experimental value: 1.43%

molecule: CCOC(=O)c1ccc(C#Cc2ccc3c(c2)C(C)(C)CC(OC(=O)c2ccccc2)S3)nc1 (stereo not shown)
experimental value: 1.07%

---

Settings: 1 μM initial concentration; Complete (with NADPH); 45 min
measurement type: Test Article remaining, percent of initial concentration (%)

compound: CC1(C)CCSc2ccc(C#Cc3ccc(C(=O)O)cn3)cc21
experimental value: 75.8

compound: CCOC(=O)c1ccc(C#Cc2ccc3c(c2)C(C)(C)CCS3)nc1
experimental value: 1.80

compound: CCOC(=O)c1ccc(C#Cc2ccc3c(c2)C(C)(C)CC(OC(=O)c2ccccc2)S3)nc1 (stereo not shown)
experimental value: 1.47

compound: CCOC(=O)c1ccc(C#Cc2ccc3c(c2)C(C)(C)CC[S+]3[O-])nc1 (stereo not shown) [Tazarotene sulfoxide]
experimental value: 4.24

---

Assay: in vitro
Conditions: human, liver microsomes, pH 7.4, Half-life, HLM; 1 μM; Without NADPH
This section presents compounds with their documented half-life at 1 µM values.
measurement type: half-life at 1 µM (min)

compound: CCOC(=O)c1ccc(C#Cc2ccc3c(c2)C(C)(C)CC[S+]3[O-])nc1 (stereo not drawn) [Tazarotene sulfoxide]
experimental value: 8.9
//
compound: CCOC(=O)c1ccc(C#Cc2ccc3c(c2)C(C)(C)CC(OC(=O)c2ccccc2)S3)nc1 (stereo not drawn)
experimental value: 7.19
//
compound: CCOC(=O)c1ccc(C#Cc2ccc3c(c2)C(C)(C)CCS3)nc1
experimental value: 7.71

---

Test: in vitro
Settings: human, human skin microsomes, pH 7.4

compound: CCOC(=O)c1ccc(C#Cc2ccc3c(c2)C(C)(C)CC(OC(=O)c2ccccc2)S3)nc1 (stereo not shown) [Compound 4]
endpoint unit: h
half-life at 10 µM: 6.8

---

Test system: Reconstructed human epidermis (RHE) tissues
Assay: RT-qPCR gene expression of K10, K19, filaggrin, K4 and K13 in reconstructed human epidermis (RHE) cultures
Assay type: cell-based
Settings: 72 h, 2.83 mM in OD/10% DMSO, 6 μl, read-out: K13 Fold Change vs Untreated/OD controls (upregulation)
fold induction at 2830 µM listing for selected molecules.
measurement type: fold induction at 2830 µM

molecule: CCOC(=O)c1ccc(C#Cc2ccc3c(c2)C(C)(C)CC(O)S3)nc1 (stereo not shown)
experimental value: 20

molecule: CCOC(=O)c1ccc(C#Cc2ccc3c(c2)C(C)(C)CC(OC(=O)C2CCN(C)CC2)S3)nc1 (stereo not shown)
experimental value: 19

molecule: CCCCCCCCCCCC(=O)OC1CC(C)(C)c2cc(C#Cc3ccc(C(=O)OCC)cn3)ccc2S1 (stereo not shown)
experimental value: 2

molecule: CCOC(=O)c1ccc(C#Cc2ccc3c(c2)C(C)(C)CC(OC(C)=O)S3)nc1 (stereo not shown)
experimental value: 15

molecule: CCOC(=O)c1ccc(C#Cc2ccc3c(c2)C(C)(C)CC(=O)S3)nc1
experimental value: 15

molecule: CCOC(=O)c1ccc(C#Cc2ccc3c(c2)C(C)(C)CC(OC(=O)c2ccccc2)S3)nc1 (stereo not shown)
experimental value: 7

molecule: CCOC(=O)c1ccc(C#Cc2ccc3c(c2)C(C)(C)CC(OC(=O)CO)S3)nc1 (stereo not shown)
experimental value: 12

molecule: CCCCCCCCCCCCCCCC(=O)OC1CC(C)(C)c2cc(C#Cc3ccc(C(=O)OCC)cn3)ccc2S1 (stereo not shown)
experimental value: 6

molecule: CCOC(=O)c1ccc(C#Cc2ccc3c(c2)C(C)(C)CC(OC(=O)CCCCCCCC(=O)OC)S3)nc1 (stereo not shown)
experimental value: 18

molecule: CC/C=C\C/C=C\C/C=C\CCCCCCC(=O)OC1CC(C)(C)c2cc(C#Cc3ccc(C(=O)OCC)cn3)ccc2S1 (stereo not shown)
experimental value: 10

---

Settings: HLM; 1 μM; Complete

molecule: CCOC(=O)c1ccc(C#Cc2ccc3c(c2)C(C)(C)CC(OC(=O)c2ccccc2)S3)nc1 (stereo not shown)
k constant: −0.0893
//
molecule: CCOC(=O)c1ccc(C#Cc2ccc3c(c2)C(C)(C)CCS3)nc1
k constant: −0.0880
//
molecule: CC1(C)CCSc2ccc(C#Cc3ccc(C(=O)O)cn3)cc21
k constant: −0.0064
//
molecule: CCOC(=O)c1ccc(C#Cc2ccc3c(c2)C(C)(C)CC[S+]3[O-])nc1 (stereo not shown) [Tazarotene sulfoxide]
k constant: −0.0689

---

Conditions: 10 μM initial concentration; Complete (with NADPH); 60 min
measurement type: Test Article remaining, percent of initial concentration (%)

molecule: CC1(C)CCSc2ccc(C#Cc3ccc(C(=O)O)cn3)cc21
experimental value: 77.4

molecule: CCOC(=O)c1ccc(C#Cc2ccc3c(c2)C(C)(C)CC(OC(=O)c2ccccc2)S3)nc1 (stereo not shown)
experimental value: 55.2

molecule: CCOC(=O)c1ccc(C#Cc2ccc3c(c2)C(C)(C)CCS3)nc1
experimental value: 0.89

molecule: CCOC(=O)c1ccc(C#Cc2ccc3c(c2)C(C)(C)CC[S+]3[O-])nc1 (stereo not shown) [Tazarotene sulfoxide]
experimental value: 2.70

---

Conditions: HLM; 1 μM; Without NADPH

compound: CCOC(=O)c1ccc(C#Cc2ccc3c(c2)C(C)(C)CC[S+]3[O-])nc1 (stereo not shown) [Tazarotene sulfoxide]
k constant: −0.0779
--
compound: CCOC(=O)c1ccc(C#Cc2ccc3c(c2)C(C)(C)CC(OC(=O)c2ccccc2)S3)nc1 (stereo not shown) [Compound 4]
k constant: −0.0964
--
compound: CCOC(=O)c1ccc(C#Cc2ccc3c(c2)C(C)(C)CCS3)nc1 [Tazarotene]
k constant: −0.0899
--
compound: CC1(C)CCSc2ccc(C#Cc3ccc(C(=O)O)cn3)cc21 [Tazarotenic acid]
k constant: 0.0003

---

Settings: 1 μM initial concentration; Complete (with NADPH); 60 min
measurement type: Test Article remaining, percent of initial concentration (%)

compound: CCOC(=O)c1ccc(C#Cc2ccc3c(c2)C(C)(C)CC(OC(=O)c2ccccc2)S3)nc1 (stereo not shown)
experimental value: 0.73
--
compound: CC1(C)CCSc2ccc(C#Cc3ccc(C(=O)O)cn3)cc21
experimental value: 68.0
--
compound: CCOC(=O)c1ccc(C#Cc2ccc3c(c2)C(C)(C)CCS3)nc1
experimental value: 0.70
--
compound: CCOC(=O)c1ccc(C#Cc2ccc3c(c2)C(C)(C)CC[S+]3[O-])nc1 (stereo not shown) [Tazarotene sulfoxide]
experimental value: 2.17
